Test: Approximate solubilities of solid forms in solvents
Assay type: physicochemical
Settings: methylene chloride, 25 °C, organic solvent or mixture, thermodynamic from solid; solvent Methylene chloride; about 25° C., at least 24 hours; read-out: Approximate Solubility (mg/mL) of Form A of the Free Base of Compound I
Experimental: A weighed sample comprising either the free base or the HCl salt of Compound I was treated with 2 mL of a solvent (either HPLC or reagent grade). The resulting mixture was agitated for at least 24 hours at about 25° C. When all of the solids were dissolved by visual inspection, the estimated solubility was calculated. […] The actual solubility may be greater than those calculated due to the use of a large amount of solvent or a slow rate of dissolution. […]

| COMPOUND | solubility / mg/mL |
| --- | --- |
| O[C@H]1CC[C@H](Nc2ncc3nc(Nc4c(F)cc(F)cc4F)n([C@H]4CCOC4)c3n2)CC1 (stereo in doubt) [Form A of the Free Base of Compound I] | 5 |

----------
Assay: Approximate solubilities of solid forms in solvents
Type: physicochemical
Conditions: tetrahydrofuran, 25 °C, organic solvent or mixture, thermodynamic from solid; solvent Tetrahydrofuran; about 25° C., at least 24 hours; read-out: Approximate Solubility (mg/mL) of Form A of the Free Base of Compound I
MEASURED PARAMETER: solubility (mg/mL)

| COMPOUND | OBSERVED VALUE |
| --- | --- |
| O[C@H]1CC[C@H](Nc2ncc3nc(Nc4c(F)cc(F)cc4F)n([C@H]4CCOC4)c3n2)CC1 (stereo in doubt) [Form A of the Free Base of Compound I] | 2.03 |

----------
Assay: Approximate solubilities of solid forms in solvents
Assay type: physicochemical
Details: ethyl acetate, 25 °C, organic solvent or mixture, thermodynamic from solid; solvent Ethyl acetate; about 25° C., at least 24 hours; read-out: Approximate Solubility (mg/mL) of Form A of the Free Base of Compound I
MEASURED PARAMETER: solubility

| MOLECULE | OBSERVED VALUE |
| --- | --- |
| O[C@H]1CC[C@H](Nc2ncc3nc(Nc4c(F)cc(F)cc4F)n([C@H]4CCOC4)c3n2)CC1 (stereo in doubt) [Form A of the Free Base of Compound I] | 0.02 mg/mL |

----------
Assay: Approximate solubilities of solid forms in solvents
Assay type: physicochemical
Details: 2-propanol, 25 °C, organic solvent or mixture, thermodynamic from solid; solvent 2-Propanol; about 25° C., at least 24 hours; read-out: Approximate Solubility (mg/mL) of Form A of the Free Base of Compound I

| COMPOUND | UNIT OF MEASURE | solubility |
| --- | --- | --- |
| O[C@H]1CC[C@H](Nc2ncc3nc(Nc4c(F)cc(F)cc4F)n([C@H]4CCOC4)c3n2)CC1 (stereo in doubt) [Form A of the Free Base of Compound I] | mg/mL | 6.39 |

----------
Assay: Approximate solubilities of solid forms in solvents
Assay type: physicochemical
Conditions: ethanol/water (1/1), 25 °C, aqueous with cosolvent or surfactant or cyclodextrin, thermodynamic from solid; solvent Ethanol/Water (1/1); about 25° C., at least 24 hours; read-out: Approximate Solubility (mg/mL) of Form A of the Free Base of Compound I
MEASURED PARAMETER: solubility

| COMPOUND | OBSERVED VALUE |
| --- | --- |
| O[C@H]1CC[C@H](Nc2ncc3nc(Nc4c(F)cc(F)cc4F)n([C@H]4CCOC4)c3n2)CC1 (stereo in doubt) [Form A of the Free Base of Compound I] | > 50 mg/mL |
